STUDY TARGET: Ba/F3-TEL-TYK2 cells (Homo sapiens)
Construct: fused on or other part: Dimerization domain of TEL (ETV6) fused to the TYK2 kinase domain; P41212 (Transcription factor ETV6)
Sequence (P29597 whole entry, change not shown, the tested form may be a part): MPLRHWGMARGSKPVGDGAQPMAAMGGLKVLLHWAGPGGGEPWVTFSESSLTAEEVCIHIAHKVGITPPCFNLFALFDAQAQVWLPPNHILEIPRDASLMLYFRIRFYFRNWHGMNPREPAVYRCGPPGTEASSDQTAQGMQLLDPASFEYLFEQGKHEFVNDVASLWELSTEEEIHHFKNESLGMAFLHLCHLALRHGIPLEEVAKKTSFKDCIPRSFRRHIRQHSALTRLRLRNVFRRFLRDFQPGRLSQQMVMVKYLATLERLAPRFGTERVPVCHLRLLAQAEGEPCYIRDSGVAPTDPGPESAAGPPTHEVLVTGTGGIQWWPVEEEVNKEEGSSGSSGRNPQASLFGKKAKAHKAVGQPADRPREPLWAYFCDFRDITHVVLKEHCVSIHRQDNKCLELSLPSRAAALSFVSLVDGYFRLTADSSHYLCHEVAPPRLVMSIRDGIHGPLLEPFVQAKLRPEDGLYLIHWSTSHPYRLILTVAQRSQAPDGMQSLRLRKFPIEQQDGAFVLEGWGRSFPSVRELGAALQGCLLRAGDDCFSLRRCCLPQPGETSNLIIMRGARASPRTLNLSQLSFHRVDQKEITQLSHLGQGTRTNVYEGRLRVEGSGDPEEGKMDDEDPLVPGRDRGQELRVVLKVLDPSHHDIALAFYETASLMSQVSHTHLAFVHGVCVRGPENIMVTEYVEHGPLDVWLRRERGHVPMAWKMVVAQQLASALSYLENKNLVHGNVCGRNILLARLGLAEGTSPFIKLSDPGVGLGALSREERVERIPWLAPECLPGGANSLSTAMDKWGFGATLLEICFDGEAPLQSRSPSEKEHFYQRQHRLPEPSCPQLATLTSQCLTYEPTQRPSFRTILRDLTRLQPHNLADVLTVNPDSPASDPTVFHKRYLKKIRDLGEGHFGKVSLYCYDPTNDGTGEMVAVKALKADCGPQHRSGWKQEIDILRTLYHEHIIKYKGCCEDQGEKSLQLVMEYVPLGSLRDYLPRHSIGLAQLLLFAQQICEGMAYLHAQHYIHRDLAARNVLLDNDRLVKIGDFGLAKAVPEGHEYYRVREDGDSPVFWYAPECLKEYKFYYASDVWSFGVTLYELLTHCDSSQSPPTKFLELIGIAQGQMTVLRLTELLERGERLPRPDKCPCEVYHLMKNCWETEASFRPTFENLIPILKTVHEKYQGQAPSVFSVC
RUN DESCRIPTION: Anti-proliferative assay, Ba/F3-TEL-TYK2 cells (Cell-Titer Glo)
Assay type: cell-based
CONDITION CONTEXT: 72 h, read-out: BaF3-TEL-TYK2 IC50
MEASURE NAME: GI50

>>> print(df.to_string())
                     structure_smiles_string  measure_name  result_value
 0  CCn1ccc2scc(Nc3cc(NC(=O)C4CC4)ncc3C(=O)NC)c2c1=O          GI50       > 10 µM
 1  CCC(=O)c1cnc(Nc2ccc(F)cc2)nc1Nc1cccc(-c2ncn(C)n2)c1OC          GI50       > 20 µM
 2  [2H]C([2H])([2H])NC(=O)c1cnc(Nc2ccc(F)cc2)nc1Nc1cccc(-c2ncn(C)n2)c1OC          GI50       2.53 µM
 3  CNC(=O)c1cnc2nc1Nc1cc(cc(-c3ncn(C)n3)c1OC)COCc1cc(ccc1F)N2          GI50       1.96 µM
 4  CNC(=O)c1cnc(Nc2ccc(F)cn2)cc1Nc1csc2ccn(C)c(=O)c12          GI50       > 20 µM
 5  [2H]C([2H])([2H])NC(=O)c1cnc(Nc2ccc(C#N)cc2)nc1Nc1cccc(-c2ncn(C)n2)c1OC          GI50       > 20 µM
 6  [2H]C([2H])([2H])NC(=O)c1cnc(Nc2ccc(Cl)cc2)nc1Nc1cccc(-c2ncn(C)n2)c1OC          GI50       5.44 µM
 7  CNC(=O)c1cnc(NC(=O)C2CC2)cc1Nc1cn(C)c2c(F)cn(C)c(=O)c12          GI50       > 20 µM
 8  CNC(=O)c1cnc2cc1Nc1cc(cc(-c3ncn(C)n3)c1OC)COCc1cccc(n1)N2          GI50       7.18 µM
 9  CCn1ccc2c(c(Nc3cc(Nc4ccc(F)cn4)ncc3C(=O)NC)cn2C)c1=O          GI50       4.03 µM
10  CNC(=O)c1nnc(NC(=O)C2CC2)cc1Nc1csc2ccn(C)c(=O)c12          GI50       > 20 µM
11  CCn1ccc2scc(Nc3cc(Nc4ccc(F)cn4)ncc3C(=O)NC)c2c1=O          GI50       > 20 µM
12  CCn1ccc2c(c(Nc3cc(NC(=O)C4CC4)nnc3C(=O)NC)cn2C)c1=O          GI50       > 20 µM
13  [2H]C([2H])([2H])NC(=O)c1cnc(Nc2cccc(C#N)c2)nc1Nc1cccc(-c2ncn(C)n2)c1OC          GI50       > 20 µM
14  CNC(=O)c1nnc2cc1Nc1cc(cc(-c3ncn(C)n3)c1OC)COCc1cccc(n1)N2          GI50       > 20 µM

All figures here come from patent US20250115597A1.
